meta.source: patent US20240382600A1

- System: YAP-dependent transcription in SF268-MCAT_Luc_dox-i-shYAPLevy (Clone 13) cells
- ASSAY_TEXT: YAP reporter gene activity assay (MCAT-Luc), SF268
- Format: cell-based
- MEASUREMENT_CONDITIONS: Homo sapiens, SF-268; SF268 MCAT_Luc, 24 hrs

MOLECULE | UNIT_DESCRIPTOR | IC50
COc1ccc(C(N)=O)c(-c2c(Cl)c(F)cc3c2[C@H](C)[C@@](CN[C@H]2CC[C@H](C(=O)N4CCC(CC5CCN(C(=O)COc6cc(-c7scnc7C)ccc6CNC(=O)[C@@H]6C[C@@H](O)CN6C(=O)[C@@H](NC(=O)C6(F)CC6)C(C)(C)C)CC5)CC4)CC2)(c2ccccc2)O3)c1F (atropisomer, axis not shown) | pM | 450
COc1ccc(C(N)=O)c(-c2c(Cl)c(F)cc3c2[C@H](C)[C@@](CN[C@H]2CC[C@H](C(=O)N4CCC(OC5CCN(C(=O)c6ccc(Cl)c(N7CCC(=O)NC7=O)c6)CC5)CC4)CC2)(c2ccccc2)O3)c1F (atropisomer, axis not shown) | pM | 490
COc1ccc(C(N)=O)c(-c2c(Cl)c(F)cc3c2[C@H](C)[C@@](CN[C@H]2CC[C@H](C(=O)N4CCC(CC5CCN(C(=O)COc6ccc(Cl)c(N7CCC(=O)NC7=O)c6)CC5)CC4)CC2)(c2ccccc2)O3)c1F (atropisomer, axis not shown) | pM | 920
COc1ccc(C(N)=O)c(-c2c(Cl)c(F)cc3c2[C@H](C)[C@@](CN[C@H]2CC[C@H](C(=O)N4CCN(CC5CCN(C(=O)COc6ccc(C)c(N7CCC(=O)NC7=O)c6)CC5)CC4)CC2)(c2ccccc2)O3)c1F (atropisomer, axis not shown) | pM | 180
COc1ccc(C(N)=O)c(-c2c(Cl)c(F)cc3c2[C@H](C)[C@@](CN[C@H]2CC[C@H](C(=O)N[C@H]4CC[C@H](NC(=O)COc5cc(-c6scnc6C)ccc5CNC(=O)[C@@H]5C[C@@H](O)CN5C(=O)[C@@H](NC(=O)C5(F)CC5)C(C)(C)C)CC4)CC2)(c2ccccc2)O3)c1F (atropisomer, axis not shown) | pM | 1800
COc1ccc(C(=O)N2CCC(C3CCN(CCNC(=O)[C@H]4CC[C@H](NC[C@]5(c6ccccc6)Oc6cc(F)c(Cl)c(-c7c(C(N)=O)ccc(OC)c7F)c6[C@@H]5C)CC4)CC3)CC2)cc1N1CCC(=O)NC1=O (atropisomer, axis not shown) | pM | 1400

---

Listed molecules paired with reported pIC50
- Test system: YAP-dependent transcription in SF268-MCAT_Luc_dox-i-shYAPLevy (Clone 13) cells
- ASSAY_TEXT: YAP reporter gene activity assay (MCAT-Luc), SF268
- Format: cell-based
- MEASUREMENT_CONDITIONS: Homo sapiens, SF-268; SF268 MCAT_Luc, 24 hrs
pIC50: −log10 of the molar value.

MOLECULE | pIC50
COc1ccc(C(=O)N2CCC(CC3CCN(C(=O)[C@H]4CC[C@H](NC[C@]5(c6ccccc6)Oc6cc(F)c(Cl)c(-c7c(C(N)=O)ccc(OC)c7F)c6[C@@H]5C)CC4)CC3)CC2)cc1N1CCC(=O)NC1=O (atropisomer, axis not shown) [Example 1] | 9.52
COc1ccc(C(=O)N2CCN(CC3CCN(C(=O)[C@H]4CC[C@H](NC[C@]5(c6ccccc6)Oc6cc(F)c(Cl)c(-c7c(C(N)=O)ccc(OC)c7F)c6[C@@H]5C)CC4)CC3)CC2)cc1N1CCC(=O)NC1=O (atropisomer, axis not shown) [Example 6] | 9.30
